assaySetup: 288.15 K; 101 kPa; Liquid; Single path-length method
readoutLabel: speed of sound (m/s)

INSERT INTO assay_data (compound, observed) VALUES
  ('CCc1ccccc1', 1360.7),
  ('CC(C)CC(C)(C)C', 1124.3),
  ('c1ccccc1', 1345.5),
  ('Cc1ccccc1', 1347.5);

====

assaySetup: 303.15 K; 101 kPa; Liquid; Single path-length method
readoutLabel: speed of sound (m/s)

INSERT INTO assay_data (molecule, readoutlabel, observed) VALUES
  ('CC(C)(C)O [2-methylpropan-2-ol]', 'speed of sound', 1099),
  ('CCc1ccccc1 [ethylbenzene]', 'speed of sound', 1297.5),
  ('c1ccccc1 [benzene]', 'speed of sound', 1275.1),
  ('CC(C)CC(C)(C)C [2,2,4-trimethylpentane]', 'speed of sound', 1061.3),
  ('Cc1ccccc1 [toluene]', 'speed of sound', 1281.9);

====

assaySetup: 318.15 K; 101 kPa; Liquid; Single path-length method
readoutLabel: speed of sound (m/s)

INSERT INTO results (compound, readoutlabel, measurementunits, observed) VALUES
  ('c1ccccc1 [benzene]', 'speed of sound', 'm/s', 1206.7),
  ('CC(C)CC(C)(C)C [2,2,4-trimethylpentane]', 'speed of sound', 'm/s', 999.53),
  ('Cc1ccccc1 [toluene]', 'speed of sound', 'm/s', 1218),
  ('CCc1ccccc1 [ethylbenzene]', 'speed of sound', 'm/s', 1236.1),
  ('CC(C)(C)O [2-methylpropan-2-ol]', 'speed of sound', 'm/s', 1035.7);

====

assaySetup: 290.65 K; 101 kPa; Liquid; Single path-length method
readoutLabel: speed of sound (m/s)

INSERT INTO measurements (compound, readoutlabel, measurementunits, observed) VALUES
  ('CCc1ccccc1', 'speed of sound', 'm/s', 1349.9),
  ('c1ccccc1', 'speed of sound', 'm/s', 1333.4),
  ('Cc1ccccc1', 'speed of sound', 'm/s', 1336.3),
  ('CC(C)CC(C)(C)C', 'speed of sound', 'm/s', 1113.8);

====

assaySetup: 295.65 K; 101 kPa; Liquid
readoutLabel: mass density (kg/m3)

INSERT INTO assay_data (compound, observed) VALUES
  ('c1ccccc1', 876.19),
  ('CCc1ccccc1', 864.66),
  ('COC(C)(C)C', 737.036),
  ('CC(C)CC(C)(C)C', 689.809),
  ('Cc1ccccc1', 864.5);

====

assaySetup: 303.15 K; 101 kPa; Liquid
readoutLabel: mass density (kg/m3)

INSERT INTO results (compound, observed) VALUES
  ('c1ccccc1 [benzene]', 868.172),
  ('CCc1ccccc1 [ethylbenzene]', 858.047),
  ('CC(C)(C)O [2-methylpropan-2-ol]', 775.212),
  ('CC(C)CC(C)(C)C [2,2,4-trimethylpentane]', 683.618),
  ('Cc1ccccc1 [toluene]', 857.513);

====

assaySetup: 290.65 K; 101 kPa; Liquid
readoutLabel: mass density (kg/m3)

INSERT INTO assay_data (compound, measurementunits, observed) VALUES
  ('CCc1ccccc1', 'kg/m3', 869.052),
  ('CC(C)CC(C)(C)C', 'kg/m3', 693.91),
  ('c1ccccc1', 'kg/m3', 881.521),
  ('Cc1ccccc1', 'kg/m3', 869.144),
  ('COC(C)(C)C', 'kg/m3', 742.259);
